Test: HBB concentration after ip administration, MCF-7 model
Set-up: species or system mice
Details: nude, mouse, in vivo, intraperitoneal, 4 mg/kg/day ip, read-out: Concentration of HBB 1 hour following ip administration
observable: concentration at 1 h (nM)
One number for each entry, in nM.

Challenge: Field request: concentration at 1 h | item: CCCCCCNC(=N)NC(=N)NCc1ccccc1 [HBB, N1-hexyl-N5-benzyl biguanide]
Response given: 527

###

Target: CYP3A4 epoxygenase (Homo sapiens, UniProt P08684)
Sequence (P08684 whole entry): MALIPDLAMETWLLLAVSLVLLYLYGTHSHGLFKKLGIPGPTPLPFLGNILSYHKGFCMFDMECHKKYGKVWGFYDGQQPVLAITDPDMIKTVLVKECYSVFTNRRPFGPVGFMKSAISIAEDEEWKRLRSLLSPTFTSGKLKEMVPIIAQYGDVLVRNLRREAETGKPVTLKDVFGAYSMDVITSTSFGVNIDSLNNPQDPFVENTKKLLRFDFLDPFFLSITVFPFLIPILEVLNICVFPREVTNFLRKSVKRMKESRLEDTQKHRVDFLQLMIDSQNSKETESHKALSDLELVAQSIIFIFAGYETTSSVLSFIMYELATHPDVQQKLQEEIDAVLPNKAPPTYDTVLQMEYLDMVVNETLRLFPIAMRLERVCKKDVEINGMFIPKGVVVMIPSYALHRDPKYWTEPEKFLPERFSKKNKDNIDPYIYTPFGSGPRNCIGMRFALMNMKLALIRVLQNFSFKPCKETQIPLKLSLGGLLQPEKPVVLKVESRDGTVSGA
observable: IC50 (µM)
Give bare numbers, in µM.

Challenge: Recall the recorded IC50 for CCCCCCNC(=N)NC(=N)NCc1ccccc1 [HBB, N1-hexyl-N5-benzyl biguanide] with CYP3A4 epoxygenase (Homo sapiens, UniProt P08684) and state it.
Response given: 110

Values compiled from patent US10272055B2.
